Tested Target: T1, GA20: H-(GA)20HHHHHH-NH2 (C-terminal amide)
T1 peptide: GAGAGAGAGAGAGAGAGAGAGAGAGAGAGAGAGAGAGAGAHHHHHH
Assay Comment: indirect ELISA, coated His-tagged peptide
Give measured EC50 for each item. Keep answers brief.
Answers are plain numbers, in nM.

Worked examples follow.
{"Binder": "NI-308.15O7 (antibody, V domains shown) VH: QVQLVESGGGVVQPGRSLRLSCAASGFTFSNHAMHWVRQAPGKGLEWVAVISYDGENTYYADSIEGRFTISRDNFKNTLFLQMYSLTADDTAMYFCARGGRRGHFTSYYLDYWGQGTLVTVSS VL: CDIQMTQSPSSLSASVGDRVTITCRASQNIDKYLNWYQQIPGKAPKLLIYAASSLHSGVPSRFSGSGSGTDFSLTISSLQPEDFAIYYCQQSYSSFRTFGQGTKLEIK", "EC50 / nM": 0.54}
{"Binder": "NI-308.18F7 (antibody, V domains shown, Recombinant complete human IgG1, kappa) VH: QVQLQESGPGLVKPSETLSVTCTVSGGSINDYYWNWIRQPAGKGLEWIGRIYASGTINYNPSLQSRVTMSIDTSKNQFSLDLISVSAADTAVYYCARWGQVVGDYYYGMDVWGQGTTVTVSS VL: EIVLTQSPLSLSVTPGEPASISCKSSQSLQHTNGYNYLDWYLLKPGQSPQLLIFLTSNRASGVPDRFSGSGSGTNFTLKISRVEAEDVGVYYCMEGIQLWTFGQGTKLEIK", "EC50 / nM": 0.83}
{"Binder": "NI-308.6B11 (antibody, V domains shown, Recombinant complete human IgG1, kappa) VH: EVQLVQSGAEVKRPGASVKVSCKVSGYTLTELSMHWVRQAPGKGLEWMGGFDPEDGETVYAQKFQGRVTMTEDTSTDTAYMELSSLRSEDTALYHCATYGSSWHWNEGNEGSYYFDYWGQGTLVTVSS VL: CDIQMTQSPSSLSASVGDRVTITCQASQDISIYLNWYQQKPGKAPKLLIYDASNLETGVPSRFSGSGSGTDFTFTISGLQPEDVARYYCQQYDDLPITFGQGTRLEIK", "EC50 / nM": 33.6}

Could I get EC50 for every one of these entries?
1. NI-308.28G1 (antibody, V domains shown, Recombinant complete human IgG1, kappa) VH: QVQLQESGPRLVKPSETLSLTCTVAGGSVNSYYWTWIQQSPGKGLEWLGRIYIAGRTNYNPSLTSRIALSVDTSRNQLSLKLTSVTAADTAIYYCARWGAESGDYYYGVDVWGPGTLVTVSS VL: EIVMTQSPLSLPVTPGEPASISCKSSEGLLHSNGYTYLDWYLQKPGQAPQLLIFLASNRAAGVPDRFSGSGSGTDFTLKISRVEAEDVGVYYCMQAIQSPWTFGPGTKVEIK
2. NI-308.5G2 (antibody, V domains shown, Recombinant complete human IgG1, kappa) VH: EVQLVQSGADLRNPGASVTVSCTASGYHFADNAINWLRQAPGQRLEWMGWINIYSGNTKYSQNFQGRVTFTRNTSASTAFMHLRSLRSEDTAVYFCARDPDSSGYYLPYFDYWGQGTLVTVSS VL: DIQLTQSPDSLTLSLGERATINCKSSQSVFYNSNNKNYLAWYQQKPGQPPKLLMYWASTRESGVTDRFSGSGSGTDFTLTITNLQAEDVAVYYCQQFYSSPLTFGGGTKVEIK

## Output
1.1
18.2
